Tested on: IGROV1 ovarian
Assay: NCI tumour cell line growth inhibition, 48 h
Where a SMILES comes first, the peptide text is derived from it. The star is where a group is joined. OBn = c1ccc(CO*)cc1
OUTCOME_MEASURE: TGI

MOLECULE	TGI
CC1(C)C2CCC13C(=O)C1OC3(C2)C2C(=O)c3c(O)ccc(O)c3C(=O)C12 (stereo unspecified)	> 100 µM

Ask: Query TGI on IGROV1 ovarian for O=C1/C(=C/C(Cl)=C/c2ccccc2)SC(=S)N1CCc1ccc(O)cc1
Reply: 4.93 µM

Ask: Identify the measured TGI of CC(C)C(Cl)CC/C(CBr)=C(\Cl)CCl (stereo unspecified) for IGROV1 ovarian.
Reply: 4.09 µM

Ask: Report TGI for CCCC(=O)NNc1[nH]c(-c2ccc(OC)cc2)cc1C(=O)OCC tested on IGROV1 ovarian.
Reply: 39.5 µM

Ask: Provide the documented TGI with IGROV1 ovarian as the system for COC(=O)c1c(C(=O)OC)c(C(c2ccccc2)c2ccccc2)n(-c2ccccc2)c1Cl
Reply: > 10 µM

Ask: Recorded TGI for CN1CCC/C1=C1\C(=O)c2cccn2C1=O with IGROV1 ovarian, please?
Reply: > 100 µM

Ask: Please state recorded TGI (tested on IGROV1 ovarian) of NC(CCC(=O)OCc1ccccc1)C(=O)NC(CCC(=O)OCc1ccccc1)C(=O)O (stereo unspecified) (H-Glu(OBn)-Glu(OBn)-OH; configuration not given here)
Reply: > 100 µM

Ask: Please state recorded TGI (tested on IGROV1 ovarian) of Nc1nncs1
Reply: > 4680 µM

Just for reference, PubChem BioAssay (NCI) is where these values come from.
